- ASSAY DETAILS: NCI Yeast Anticancer Drug Screen. Data for the sgs1 mgt1 strain (AID 161);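 note: 0% = growth of cultures given vehicle only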
- PROTOCOL CONDITIONS: S. cerevisiae sgs1 mgt1 strain, at 5.0 µM (retest, dose inferred, filed as 0.5), stronger effect = higher value
- Procedure: Growth inhibition of yeast strains with defined genetic alterations is measured as a screen for potential anti-cancer activity. Selected strains with alterations in DNA damage repair or cell cycle control were exposed to compounds and growth inhibition was measured relative to vehicle treated controls. The strain used in this assay is sgs1 mgt1
The panel holds about 79,000 compounds, 15% with a hit somewhere; the sample as a whole holds those more often.
I'd appreciate it if you could supply growth inhibition values for the items below.
Give the quantity in %, number only.

# growth inhibition (compound: C=C1C(O)C2(O)OCC34C(CC5C(C)=CC(=O)C(O)C5(C)C23)OC(=O)C(OC(=O)C/C=C(\C)CCCCC)C14 (centres undefined) ) is 60

# growth inhibition (compound: Brc1ccc(N=Nc2ccc(-c3ccc[cH-]3)cc2)cc1.[Fe+2].c1cc[cH-]c1 ) is 7

# growth inhibition (compound: CC(=O)Oc1ccc(N=[N+]([O-])c2ccc(OC(C)=O)cc2)cc1 ) is 2

# growth inhibition (compound: CCCCCCCCCCCCCCCCN[Si](NCCCCCCCCCCCCCCCC)(NCCCCCCCCCCCCCCCC)NCCCCCCCCCCCCCCCC ) is 99

# growth inhibition (compound: O=C1CNCCCN2CCN(CCCNCC(=O)Nc3ccc(cc3)S(=O)(=O)c3ccc(cc3)NC(=O)CNCCCN3CCN(CCCNCC(=O)Nc4ccc(cc4)S(=O)(=O)c4ccc(cc4)N1)CC3)CC2 ) is -14

# growth inhibition (compound: Oc1ccc2cc(Br)ccc2c1O ) is 10

# growth inhibition (compound: CCOc1cc(C(c2ccc(N(C)C)cc2)c2ccc(N(C)C)cc2)ccc1O ) is 0

# growth inhibition (compound: CC(CN(C)C)C(=O)c1cn(C)c2ccccc12 (centres undefined) ) is -2

# growth inhibition (compound: O=C(O)C(Br)C(Br)C(=O)Nc1ccc(Cl)c(Cl)c1 (centres undefined) ) is 85

# growth inhibition (compound: C1=C(c2c(-c3ccccc3)[nH]c3ccccc23)Cc2ccccc21 ) is 0

# growth inhibition (compound: CCCC(c1ccc(O)cc1)c1ccc(O)cc1 ) is -1

# growth inhibition (compound: COC1/C=C\C=C(/C)C(=O)NC2=CC(=O)C(N)=C(CC(C)CC(OC)C(O)C(C)C=C(C)C1OC(N)=O)C2=O (centres undefined) ) is 5

# growth inhibition (compound: CCCCN1CCN(c2ccc([N+](=O)[O-])c3no[n+]([O-])c23)CC1 ) is 90

# growth inhibition (compound: O=C(O)/C(=C\c1cc(I)c(O)c(I)c1)c1ccc(I)cc1 ) is 34

# growth inhibition (compound: C=Cc1nc(N)nc(-c2ccc(C)cc2)n1 ) is 3

# growth inhibition (compound: Oc1cc2ccccc2cc1O ) is 2

# growth inhibition (compound: BrCC1(CBr)COC1 ) is 6

# growth inhibition (compound: CCCCC(CCc1ccccc1[N+](=O)[O-])(C(C)=O)C(=O)OCC (centres undefined) ) is -3

# growth inhibition (compound: CCCCCc1[nH]nc(C(=O)OC)c1N=NN1CCOCC1 ) is 62

# growth inhibition (compound: Cc1c[nH]c2c(O)cc3c(c12)[C@H](CCl)CN3C(=O)c1cc2cc(NC(=O)Nc3ccc4[nH]c(C(=O)N5C[C@@H](CCl)c6c5cc(O)c5[nH]cc(C)c65)cc4c3)ccc2[nH]1 ) is 33

# growth inhibition (compound: CSc1cc(Cl)c(C)cc1S(=O)(=O)NC(=O)Nc1ccc(Cl)cc1 ) is 24

# growth inhibition (compound: Cc1cc2oc3c(ccc(=O)n3C)c(=O)c2c(C)c1Cl ) is 22

# growth inhibition (compound: O=C1C(Cl)=C(N2C(=O)CCC2=O)C(=O)c2ccccc21 ) is 99

# growth inhibition (compound: Cc1cccc(O)c(=O)c1 ) is 2

# growth inhibition (compound: O=C1C=C(Cl)C(=O)C2=C1CCCC2 ) is 8

# growth inhibition (compound: CCCCCN(CCCCC)C(=S)Nc1ccccc1 ) is -19

# growth inhibition (compound: C=CC(c1ccccc1)[C@@]1(OC(C)=O)C(=O)C(=O)OC1C1COC(C)(C)O1 (some centres undefined) ) is 65

# growth inhibition (compound: Cn1cccc1C(/C=C/c1ccccc1[N+](=O)[O-])c1cccn1C ) is -12

# growth inhibition (compound: CCCCCCCCCCCCCCNCC(OCC)OCC ) is 83

# growth inhibition (compound: CN(C)CCN(C)N=Nc1c(-c2cccs2)n[nH]c1C(F)(F)F ) is 99

# growth inhibition (compound: C=C1C(=O)O[C@@H]2C[C@@]3(C)CCC[C@H](C)C3=C[C@H]12 ) is 24

# growth inhibition (compound: CCCCC(/C=N\NC(=O)c1ccc[n+](C)c1)=C/c1ccccc1 ) is -6

# growth inhibition (compound: Clc1ccc(C2=CCN3CC=C(c4ccc(Cl)cc4)C23)cc1 ) is 32

# growth inhibition (compound: COc1ccc2c(c1)N=C(N)n1c(nc3ccccc31)S2 ) is -10

# growth inhibition (compound: COC(=O)c1ccc(C)cc1C1CN=NC12Cc1cc(C)ccc1C2=O (centres undefined) ) is 5

# growth inhibition (compound: COc1ccc(Cc2nc3ccccc3s2)cc1OC ) is 61

# growth inhibition (compound: Cc1ncc(Br)c(C(=O)O)n1 ) is 5

# growth inhibition (compound: CNC1=C2NC(=O)/C(C)=C\C=C\C(C)C(O)C(C)C(O)C(C)C(OC(C)=O)C(C)C(OC)/C=C/OC3(C)Oc4c(C)c(O)c(c(c4C3=O)C1=O)C2=O (centres undefined) ) is 1

# growth inhibition (compound: CC(C)Sc1nc(NC(=O)N(CCCl)N=O)cc(=O)[nH]1 ) is -12

The reported numbers originate from PubChem BioAssay (NCI).
